# Assay Procedure: Pharmacokinetics study of KPT-335 in cats (i.v. injection, p.o. capsules and tablets; UPLC-MS/MS, non-compartmental analysis)
# Assay type: in vivo
# Experimental Parameters: both sexes, cat, plasma, po, 1 mg/kg, cats, tablet p.o. 1 mg/kg BW after fasting, 8 h, mean
Measured Quantity: concentration at 8 h (ng/mL)
Respond with the bare value in ng/mL.

The measured concentration at 8 h associated with O=C(/C=C\n1cnc(-c2cc(C(F)(F)F)cc(C(F)(F)F)c2)n1)NNc1ccccn1 [KPT-335] reads 121

* * *

# Assay Procedure: Pharmacokinetics study of KPT-335 in cats (i.v. injection, p.o. capsules and tablets; UPLC-MS/MS, non-compartmental analysis)
# Format: in vivo
# Experimental Parameters: both sexes, plasma, po, 1 mg/kg, cats, p.o., Tablet, Fasting, 1 mg/kg BW; read-out: AUClast
Measured Quantity: AUC(0-t)
Include the unit after the number when you answer.

The measured AUC(0-t) associated with O=C(/C=C\n1cnc(-c2cc(C(F)(F)F)cc(C(F)(F)F)c2)n1)NNc1ccccn1 [KPT-335] reads 2.41 µg·h/mL

* * *

# Assay Procedure: Pharmacokinetics study of KPT-335 in cats (i.v. injection, p.o. capsules and tablets; UPLC-MS/MS, non-compartmental analysis)
# Type: in vivo
# Experimental Parameters: both sexes, cat, plasma, po, 2 mg/kg, cats, tablet p.o. 2 mg/kg BW after feeding, 1.5 h, mean; read-out: Plasma concentration Mean
Measured Quantity: concentration at 1.5 h
Include the unit after the number when you answer.

The measured concentration at 1.5 h associated with O=C(/C=C\n1cnc(-c2cc(C(F)(F)F)cc(C(F)(F)F)c2)n1)NNc1ccccn1 [KPT-335] reads 555 ng/mL

* * *

# Assay Procedure: pKa (unpublished data)
# Type: physicochemical
# Experimental Parameters: weak base
Measured Quantity: pKa
The reply should be a number, written without any unit.

The measured pKa associated with O=C(/C=C\n1cnc(-c2cc(C(F)(F)F)cc(C(F)(F)F)c2)n1)NNc1ccccn1 reads 10.6

* * *

# Assay Procedure: Pharmacokinetics study of KPT-335 in cats (i.v. injection, p.o. capsules and tablets; UPLC-MS/MS, non-compartmental analysis)
# Assay type: in vivo
# Experimental Parameters: both sexes, cat, plasma, iv, 1 mg/kg, cats, i.v. 1 mg/kg BW, 12 h, mean
Measured Quantity: concentration at 12 h (ng/mL)
Respond with the bare value in ng/mL.

The measured concentration at 12 h associated with O=C(/C=C\n1cnc(-c2cc(C(F)(F)F)cc(C(F)(F)F)c2)n1)NNc1ccccn1 [KPT-335] reads 39.5

* * *

# Assay Procedure: Pharmacokinetics study of KPT-335 in cats (i.v. injection, p.o. capsules and tablets; UPLC-MS/MS, non-compartmental analysis)
# Format: in vivo
# Experimental Parameters: both sexes, plasma, po, 1 mg/kg, cats, p.o., Tablet, Feeding, 1 mg/kg BW; read-out: Tmax
Measured Quantity: Tmax (h)
Respond with the bare value in h.

The measured Tmax associated with O=C(/C=C\n1cnc(-c2cc(C(F)(F)F)cc(C(F)(F)F)c2)n1)NNc1ccccn1 reads 1.33

* * *

# Assay Procedure: Pharmacokinetics study of KPT-335 in cats (i.v. injection, p.o. capsules and tablets; UPLC-MS/MS, non-compartmental analysis)
# Format: in vivo
# Experimental Parameters: both sexes, cat, plasma, po, 0.2 mg/kg, cats, capsule p.o. 0.2 mg/kg BW, 0.75 h, mean
Measured Quantity: concentration at 0.75 h (ng/mL)
Respond with the bare value in ng/mL.

The measured concentration at 0.75 h associated with O=C(/C=C\n1cnc(-c2cc(C(F)(F)F)cc(C(F)(F)F)c2)n1)NNc1ccccn1 [KPT-335] reads 20.8

* * *

# Assay Procedure: Pharmacokinetics study of KPT-335 in cats (i.v. injection, p.o. capsules and tablets; UPLC-MS/MS, non-compartmental analysis)
# Assay type: in vivo
# Experimental Parameters: both sexes, plasma, po, 1 mg/kg, cats, p.o., Tablet, Fasting, 1 mg/kg BW; read-out: F (absolute bioavailability)
Measured Quantity: bioavailability

The measured bioavailability associated with O=C(/C=C\n1cnc(-c2cc(C(F)(F)F)cc(C(F)(F)F)c2)n1)NNc1ccccn1 reads 75.9%

* * *

# Assay Procedure: Pharmacokinetics study of KPT-335 in cats (i.v. injection, p.o. capsules and tablets; UPLC-MS/MS, non-compartmental analysis)
# Format: in vivo
# Experimental Parameters: both sexes, cat, plasma, po, 2 mg/kg, cats, tablet p.o. 2 mg/kg BW after feeding, 1 h, individual cats 1-6; read-out: Plasma concentration
Measured Quantity: concentration at 1 h (ng/mL)
Respond with the bare value in ng/mL.

The measured concentration at 1 h associated with O=C(/C=C\n1cnc(-c2cc(C(F)(F)F)cc(C(F)(F)F)c2)n1)NNc1ccccn1 reads 288

* * *

# Assay Procedure: Pharmacokinetics study of KPT-335 in cats (i.v. injection, p.o. capsules and tablets; UPLC-MS/MS, non-compartmental analysis)
# Format: in vivo
# Experimental Parameters: both sexes, cat, plasma, po, 0.2 mg/kg, cats, capsule p.o. 0.2 mg/kg BW, 1.5 h, mean; read-out: Plasma concentration Mean
Measured Quantity: concentration at 1.5 h (ng/mL)
Respond with the bare value in ng/mL.

The measured concentration at 1.5 h associated with O=C(/C=C\n1cnc(-c2cc(C(F)(F)F)cc(C(F)(F)F)c2)n1)NNc1ccccn1 reads 22.9

* * *

# Assay Procedure: Pharmacokinetics study of KPT-335 in cats (i.v. injection, p.o. capsules and tablets; UPLC-MS/MS, non-compartmental analysis)
# Assay type: in vivo
# Experimental Parameters: male, plasma, po, 1 mg/kg, male cats, p.o., Tablet, Feeding, 1 mg/kg BW; read-out: Cmax Value males
Measured Quantity: Cmax (ng/mL)
Respond with the bare value in ng/mL.

The measured Cmax associated with O=C(/C=C\n1cnc(-c2cc(C(F)(F)F)cc(C(F)(F)F)c2)n1)NNc1ccccn1 [KPT-335] reads 261

* * *

# Assay Procedure: Pharmacokinetics study of KPT-335 in cats (i.v. injection, p.o. capsules and tablets; UPLC-MS/MS, non-compartmental analysis)
# Format: in vivo
# Experimental Parameters: cats, capsule p.o. 0.2 mg/kg BW, 4 h, individual cats 1-6; 0.2 mg/kg
Measured Quantity: Plasma concentration (ng/mL)
Respond with the bare value in ng/mL.

The measured Plasma concentration associated with O=C(/C=C\n1cnc(-c2cc(C(F)(F)F)cc(C(F)(F)F)c2)n1)NNc1ccccn1 reads 8.71

* * *

# Assay Procedure: Pharmacokinetics study of KPT-335 in cats (i.v. injection, p.o. capsules and tablets; UPLC-MS/MS, non-compartmental analysis)
# Format: in vivo
# Experimental Parameters: female, plasma, po, 2 mg/kg, female cats, p.o., Capsule, Fasting, 2 mg/kg BW; read-out: AUClast Value females
Measured Quantity: AUC(0-t) (ng·h/mL)
Respond with the bare value in ng·h/mL.

The measured AUC(0-t) associated with O=C(/C=C\n1cnc(-c2cc(C(F)(F)F)cc(C(F)(F)F)c2)n1)NNc1ccccn1 [KPT-335] reads 1830
